# Target System: human PAD4 (Homo sapiens, UniProt Q9UM07)
# Construct: human PAD4 (NM_012387), A2-P663, was PCR amplified; His-SUMO (N, cleaved yes)
# Sequence (Q9UM07 2-663): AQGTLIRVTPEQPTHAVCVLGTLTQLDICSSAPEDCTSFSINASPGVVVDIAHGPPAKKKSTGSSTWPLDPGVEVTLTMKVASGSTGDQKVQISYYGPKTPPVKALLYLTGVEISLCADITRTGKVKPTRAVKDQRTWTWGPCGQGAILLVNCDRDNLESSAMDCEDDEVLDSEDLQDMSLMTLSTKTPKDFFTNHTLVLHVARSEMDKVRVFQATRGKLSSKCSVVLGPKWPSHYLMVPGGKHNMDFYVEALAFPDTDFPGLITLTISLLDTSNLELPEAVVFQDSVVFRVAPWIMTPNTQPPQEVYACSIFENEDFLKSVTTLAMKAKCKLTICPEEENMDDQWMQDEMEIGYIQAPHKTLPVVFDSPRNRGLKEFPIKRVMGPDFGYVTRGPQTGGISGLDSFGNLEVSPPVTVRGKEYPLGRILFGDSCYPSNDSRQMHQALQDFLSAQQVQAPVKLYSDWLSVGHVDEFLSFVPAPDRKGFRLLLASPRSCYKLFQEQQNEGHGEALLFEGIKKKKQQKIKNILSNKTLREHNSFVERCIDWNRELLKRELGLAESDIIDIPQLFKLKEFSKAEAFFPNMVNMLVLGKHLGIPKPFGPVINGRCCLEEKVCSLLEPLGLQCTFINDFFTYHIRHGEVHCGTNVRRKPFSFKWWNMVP
# Assay Overview: In vitro PAD4 BAEE biochemical assay
# Condition Summary: BAEE substrate 3 mM, 5 nM PAD4, 2 mM calcium chloride; geometric mean of multiple experiments
Assay Metric: pIC50
Give bare numbers, as −log10 of the molar value.

COc1cc(C(=O)N2[C@H]3CC[C@@H]2[C@H](N)C3)cc2nc(-c3cc4ccc5nc4n3CCCCCc3nccnc3C(=O)N[C@@H]5C)n(C)c12 ... 7.38
COc1cc(C(=O)N2CC[C@@H](OC)[C@@H](N)C2)cc2nc(-c3cc4ccc5nc4n3CCCCCc3ccccc3C(=O)N[C@@H]5C)n(C)c12 ... 6.93
COc1cc(C(=O)N2CC[C@@H](OC)[C@@H](N)C2)cc2nc(-c3cc4ccc5nc4n3CCCCCc3cccc(F)c3C(=O)N[C@@H]5C)n(C)c12 ... 7.24
C[C@@H]1c2ccc3cc(-c4nc5cc(C(=O)N6C[C@H](N)[C@@H]7CC[C@H]6C7)cc(F)c5n4C4CC4)n(c3n2)CC(F)(F)CCC[C@H]2C[C@H]2C(=O)N1C ... 7.80
COc1cc(C(=O)N2CC[C@@H](OC(F)F)[C@@H](N)C2)cc2nc(-c3cc4ccc5nc4n3CCCCC[C@@H]3C[C@H]3C(=O)N[C@@H]5C)n(C)c12 ... 6.98
COc1cc(C(=O)N2C[C@H](N)[C@@H]3CC[C@H]2C3)cc2nc(-c3cc4ccc5nc4n3CCCCCC[C@](F)(c3ccccn3)C(=O)N[C@@H]5C)n(C3CC3)c12 (single isomer, unassigned) ... 7.47
COc1cc(C(=O)N2[C@H]3CC[C@@H]2[C@H](N)C3)cc2nc(-c3cc4ccc5nc4n3CCCCOCC(=O)N[C@@H]5C)c(C)n12 ... 7.44
C[C@H]1NC(=O)C(C)(C)CCCCCCn2c(-c3nc4cc(C(=O)N[C@H]5CNCC[C@@H]5F)c(F)cc4n3C(F)F)cc3ccc1nc32 ... 7.32

Give pIC50 for all compounds that follow.
1. COc1cc(C(=O)N2CC[C@@H](OC)[C@@H](N)C2)cc2nc(-c3cc4ccc5nc4n3CCCCC[C@H]3C(F)(F)[C@]3(C)C(=O)N[C@@H]5C)n(C)c12
2. COc1cc(C(=O)N2CCC[C@@H](N)C2)cc2nc(-c3cc4ccc5nc4n3C[C@@H]3C[C@H]3C(OC)CCCC(=O)N[C@@H]5C)n(C)c12 (stereo partly drawn) [Example 264]

Resp:
1: 6.57; 2: 7.04

Consider the following items and state reported pIC50 for each.
1. C[C@@H]1[C@H](N)CCCN1C(=O)c1cc(F)c2c(c1)nc(-c1cc3ccc4nc3n1CC(F)(F)CCC[C@@H]1C[C@H]1C(=O)N[C@@H]4C)n2[C@H]1C[C@@H]1F
2. C[C@H]1NC(=O)c2nccnc2CCCCCn2c(-c3nc4cc(C(=O)N5C[C@H](N)[C@@H]6CC[C@H]5C6)cc(F)c4n3C3CC3)cc3ccc1nc32
3. COc1cc(C(=O)N[C@H]2CNCC[C@@H]2F)cc2nc(-c3cc4ccc5nc4n3C[C@H]3C[C@H]3COCCC(=O)N[C@@H]5C)n(C)c12
4. COc1cc(C(=O)N[C@H]2CNC[C@H](O)C2)cc2nc(-c3cc4ccc5nc4n3CCCCCCC(C)(C)C(=O)N[C@@H]5C)n(C)c12 [Example 530]
5. CO[C@@H]1CCN(C(=O)c2cc(OC(F)F)c3c(c2)nc(-c2cc4ccc5nc4n2CCCCC[C@@H]2C[C@H]2C(=O)N[C@@H]5C)n3C)C[C@@H]1N

Resp:
7.80
7.54
7.35
7.29
7.02

Source listed as patent US11976083B2.
